- Tested on: RXF 393 renal
- TEST: NCI-60 one-dose screen, 48 h
- CONDITIONS: 10 µM unless noted
This is part of a sample that, as a whole, favours compounds with a hit. Of some 83,000 tested, about 20% had one in any assay. The source made the active and inactive calls. How the source made its calls: active means growth percent below 10; inactive means the rest.
Valid outcomes are listed here; reply with one: 1 = active, 0 = inactive

{"COMPOUND": "CC(=O)OC[C@]12CC[C@@H]([C@@H](C)c3nnc(-c4ccncc4)o3)[C@@H]1[C@H]1CC[C@@H]3[C@@]4(C)CC[C@H](OC(C)=O)C(C)(C)[C@@H]4CC[C@@]3(C)[C@]1(C)CC2", "CLASS_NAME": 0}
{"COMPOUND": "Cc1ccc(C)c(/C=C2\\CN(C(=O)OC(C)(C)C)C/C(=C\\c3cc(C)ccc3C)C2=O)c1", "CLASS_NAME": 0}
{"COMPOUND": "Cc1c(CC(=S)N2CCOCC2)nnn1-c1cccc(C(F)(F)F)c1", "CLASS_NAME": 0}
{"COMPOUND": "O=C(/C=C/c1ccc(Cl)cc1)c1cccc(OCCCOc2cccc(C(=O)/C=C/c3ccc(Cl)cc3)c2)c1", "CLASS_NAME": 0}
{"COMPOUND": "Cc1nc2sc(C(=O)Nc3cccc(Br)c3C)c(N)c2cc1C(O)c1ccccc1 (stereo not drawn)", "CLASS_NAME": 0}
{"COMPOUND": "O=C(/C=C(O)/C=C/c1cccc2[nH]ccc12)/C=C/c1cccc2[nH]ccc12", "CLASS_NAME": 0}
{"COMPOUND": "O=c1ccc(=O)n(-c2nc(-c3ccc([N+](=O)[O-])cc3)cs2)[nH]1", "CLASS_NAME": 0}
{"COMPOUND": "CCN(CC)Cc1cc(Nc2ccnc3cc(Cl)ccc23)ccc1O", "CLASS_NAME": 0}
{"COMPOUND": "[2H]C([2H])([2H])Oc1ccc(F)cc1/C=C/C(=O)/C=C(O)/C=C/c1cc(F)ccc1OC([2H])([2H])[2H]", "CLASS_NAME": 0}
{"COMPOUND": "COc1cc(C2C(C(=O)OCc3ccccc3)=C(C)NC(C)=C2C(=O)OCc2ccccc2)cc(OC)c1OC", "CLASS_NAME": 1}

Task: Record lookup: outcome of this test for `CC1(C)CC[C@]2(C(=O)N[C@H](CO)Cc3ccccc3)CC[C@]3(C)C(=CC[C@@H]4[C@@]5(C)CCCNC(C)(C)[C@@H]5CC[C@]43C)[C@@H]2C1` ?
Result: 0

Task: Record lookup: outcome of this test for `Cn1c(=O)c2[nH]c(SCC(=O)Nc3ccc(C(=O)/C=C/c4ccccc4Cl)cc3)nc2n(C)c1=O` ?
Result: 0

Task: Record lookup: outcome of this test for CCN1C(=O)N(CC)C2C1NN=c1s/c(=C\c3ccc(C(F)(F)F)cc3)c(=O)n12 (stereo not drawn) ?
Result: 0
